Quick reference: MIC of the listed items.
System: Corynebacterium diphtheriae
Assay Info: Antibacterial activity against Corynebacterium diphtheriae MTCC 116
Type: functional

Past entries and their recorded results:
| Molecule | MIC |
| --- | --- |
| COc1cc2c(c(OC)c1C(C)=O)[C@H](O)[C@H](O)C(C)(C)O2 | 1.28 µg/mL |
| COc1cc(OC)c2c(c1C(C)=O)OC(C)(C)[C@H](O)[C@@H]2O | 0.99 µg/mL |
| COc1cc(OC)c2c(c1C(C)=O)OC(C)(C)C(OC)C2Cl (stereo unspecified) | 0.21 µg/mL |
| COc1cc(OC)c2c(c1C(C)=O)OC(C)(C)C(OC)C2F (stereo unspecified) | 0.92 µg/mL |
| COc1cc(OC)c2c(c1C(C)=O)OC(C)(C)[C@@H](O)[C@H]2O | 0.9 µg/mL |

Next molecule, please.
Per the record, "COc1c(Br)c(OC)c(C(C)=O)c2c1C=CC(C)(C)O2" has MIC of 1.08 µg/mL

----------
System: Erythrocyte
Assay Info: Hemolytic activity in human RBC assessed as mean absorbance (reference value: 0.1868 +/- 0.033)
Assay type: ADME, cell-based
Quick reference: Activity of the listed items.
// print number alone

Past entries and their recorded results:
| Molecule | Assay Endpoint | Experimental Result |
| --- | --- | --- |
| COc1cc(OC)c2c(c1C(C)=O)OC(C)(C)C(OC)C2Cl (stereo unspecified) | Activity | 0.3659 |
| COc1cc(OC)c2c(c1C(C)=O)OC(C)(C)C(OC)C2F (stereo unspecified) | Activity | 0.3947 |
| COc1cc2c(c(O)c1C(C)=O)C(=O)CC(C)(C)O2 | Activity | 0.3841 |
| COc1cc(OC)c2c(c1C(C)=O)OC(C)(C)[C@H](O)[C@@H]2O | Activity | 0.3888 |
| COc1c(Br)c(OC)c(C(C)=O)c2c1C=CC(C)(C)O2 | Activity | 0.3634 |

Per the record, "COc1cc(OC)c2c(c1C(C)=O)OC(C)(C)[C@@H](O)[C@H]2O" has Activity of 0.4046

Per the record, "COc1cc(O)c2c(c1C(C)=O)OC(C)(C)C=C2" has Activity of 0.4624

----------
Study System: DNA gyrase (Staphylococcus aureus, UniProt P0A0K8+P20831)
Sequence (P0A0K8 whole entry): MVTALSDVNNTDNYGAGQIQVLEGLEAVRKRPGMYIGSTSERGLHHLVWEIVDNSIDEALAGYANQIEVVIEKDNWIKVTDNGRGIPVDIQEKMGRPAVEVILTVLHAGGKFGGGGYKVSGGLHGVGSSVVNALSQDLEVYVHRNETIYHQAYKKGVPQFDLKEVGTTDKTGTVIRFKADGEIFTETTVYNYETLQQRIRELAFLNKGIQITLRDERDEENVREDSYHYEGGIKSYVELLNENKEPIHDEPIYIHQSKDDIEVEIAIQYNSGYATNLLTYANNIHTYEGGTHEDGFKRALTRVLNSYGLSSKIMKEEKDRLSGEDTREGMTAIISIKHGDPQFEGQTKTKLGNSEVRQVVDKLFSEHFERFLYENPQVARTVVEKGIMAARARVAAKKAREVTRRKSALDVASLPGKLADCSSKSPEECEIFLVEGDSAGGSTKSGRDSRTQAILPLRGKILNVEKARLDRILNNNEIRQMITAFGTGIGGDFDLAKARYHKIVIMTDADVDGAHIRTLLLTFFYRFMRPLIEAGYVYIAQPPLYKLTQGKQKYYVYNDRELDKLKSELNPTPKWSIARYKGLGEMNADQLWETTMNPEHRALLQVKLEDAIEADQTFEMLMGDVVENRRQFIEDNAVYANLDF
Sequence (P20831 whole entry): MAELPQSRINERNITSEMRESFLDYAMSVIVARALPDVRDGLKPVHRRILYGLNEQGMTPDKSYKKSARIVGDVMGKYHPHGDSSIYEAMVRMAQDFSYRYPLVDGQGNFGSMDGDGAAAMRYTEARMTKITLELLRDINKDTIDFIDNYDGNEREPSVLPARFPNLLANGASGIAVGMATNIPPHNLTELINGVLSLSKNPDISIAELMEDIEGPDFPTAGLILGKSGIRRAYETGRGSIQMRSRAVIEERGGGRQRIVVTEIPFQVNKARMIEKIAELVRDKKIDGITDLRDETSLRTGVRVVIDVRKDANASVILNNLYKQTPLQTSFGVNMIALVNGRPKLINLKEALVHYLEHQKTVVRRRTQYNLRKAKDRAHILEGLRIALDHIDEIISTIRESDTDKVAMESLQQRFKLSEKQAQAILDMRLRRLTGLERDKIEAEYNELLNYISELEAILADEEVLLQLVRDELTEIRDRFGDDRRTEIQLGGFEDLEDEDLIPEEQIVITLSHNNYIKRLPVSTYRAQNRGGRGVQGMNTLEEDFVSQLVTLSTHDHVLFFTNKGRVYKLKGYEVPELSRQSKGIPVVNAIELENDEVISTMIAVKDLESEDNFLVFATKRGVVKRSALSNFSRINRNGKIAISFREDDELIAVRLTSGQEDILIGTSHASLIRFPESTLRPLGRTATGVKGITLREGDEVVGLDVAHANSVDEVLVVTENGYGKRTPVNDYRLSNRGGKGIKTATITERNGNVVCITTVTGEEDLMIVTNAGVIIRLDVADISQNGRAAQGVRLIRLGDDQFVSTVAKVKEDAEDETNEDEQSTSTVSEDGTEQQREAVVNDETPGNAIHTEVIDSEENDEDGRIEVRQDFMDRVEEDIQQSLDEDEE
Assay Info: Inhibition of Staphylococcus aureus DNA gyrase assessed as reduction in relaxation of pBR322 DNA by […] analysis
Format: protein-complex assay
Assay Endpoint: pIC50
API: returns pIC50 as number; meaning -log10 of concentration in mol/L.

| Compound | Study System | pIC50 |
| --- | --- | --- |
| COc1cc(O)c2c(c1C(C)=O)OC(C)(C)C=C2 | DNA gyrase (Staphylococcus aureus, UniProt P0A0K8+P20831) | 8.12 |

Per the record, "COc1cc(OS(=O)(=O)C(F)(F)F)c2c(c1C(C)=O)OC(C)(C)C=C2" has pIC50 of 8.60

----------
Assay Info: Cytotoxicity against human MCF7 cells assessed as cell viability after 4 hrs by MTT assay relative to control
Format: cell-based
Set-up: concentration or dose not given beside the values
Settings: read-out: Activity
Assay Endpoint: viability at 4 h

| Molecule | Assay Endpoint | Experimental Result |
| --- | --- | --- |
| COc1cc(OC)c2c(c1C(C)=O)OC(C)(C)[C@H](O)[C@@H]2O | viability at 4 h | 20% |

Per the record, "COc1cc(OS(=O)(=O)C(F)(F)F)c2c(c1C(C)=O)OC(C)(C)C=C2" has viability at 4 h of 20%

Per the record, "COc1cc(O)c2c(c1C(C)=O)OC(C)(C)C=C2" has viability at 4 h of 20%

Per the record, COc1cc(OC)c2c(c1C(C)=O)OC(C)(C)C(OC)C2F (stereo not given) has viability at 4 h of 20%

Per the record, COc1cc(O)c2c(c1C(C)=O)OC(C)(C)C(OC)C2Cl (stereo not given) has viability at 4 h of 20%

----------
System: Corynebacterium diphtheriae
Assay Info: Antibacterial activity against Corynebacterium diphtheriae MTCC 116 assessed as cell wall degradation by measuring dead cells measured every 30 mins up to 180 mins by microscopic method
Type: functional, organism-based
Activity calls are given as the source filed them. The calls are words filed in the database; no cut-off is given here.
Assay Endpoint: Activity

| Compound | Study System | Activity |
| --- | --- | --- |
| COc1cc(O)c2c(c1C(C)=O)OC(C)(C)C=C2 | Corynebacterium diphtheriae | Active |
| COc1cc2c(c(O)c1C(C)=O)C(=O)CC(C)(C)O2 | Corynebacterium diphtheriae | Active |
| COc1cc(OC)c2c(c1C(C)=O)OC(C)(C)[C@@H](O)[C@H]2O | Corynebacterium diphtheriae | Active |
| COc1cc(OC)c2c(c1C(C)=O)OC(C)(C)[C@H](O)[C@@H]2O | Corynebacterium diphtheriae | Active |
| COc1cc(OS(=O)(=O)C(F)(F)F)c2c(c1C(C)=O)OC(C)(C)C=C2 | Corynebacterium diphtheriae | Active |
| COc1cc(O)c2c(c1C(C)=O)OC(C)(C)C(OC)C2Cl (stereo not given) | Corynebacterium diphtheriae | Active |
| COc1cc(OC)c2c(c1C(C)=O)OC(C)(C)C(OC)C2F (stereo not given) | Corynebacterium diphtheriae | Active |
| COc1cc(OC)c2c(c1C(C)=O)OC(C)(C)C(OC)C2Cl (stereo not given) | Corynebacterium diphtheriae | Active |
| COc1cc2c(c(OC)c1C(C)=O)[C@H](O)[C@H](O)C(C)(C)O2 | Corynebacterium diphtheriae | Active |

Next compound, please.
Per the record, "COc1c(Br)c(OC)c(C(C)=O)c2c1C=CC(C)(C)O2" has Activity of Active

----------
Tested on: Streptococcus pyogenes
Assay Info: Antibacterial activity against Streptococcus pyogenes MTCC 442
Type: functional
One threshold, 1 µg/mL, splits the recorded MIC values: lower ones are true, equal or higher ones are false.

Reference set, count: 3
| Compound | Group Label |
| --- | --- |
| CO[C@@H]1[C@@H](OC(N)=O)[C@@H](O)[C@H](Oc2ccc3c(O)c(NC(=O)c4ccc(O)c(CC=C(C)C)c4)c(=O)oc3c2C)OC1(C)C | false |
| COc1cc(O)c2c(c1C(C)=O)OC(C)(C)C(OC)C2Cl (stereo unspecified) | true |
| COc1cc2c(c(OC)c1C(C)=O)[C@H](O)[C@H](O)C(C)(C)O2 | false |

Shift focus to the following entry.
Ask: Please state whether MIC is below 1 µg/mL for "COc1c(Br)c(OC)c(C(C)=O)c2c1C=CC(C)(C)O2"
Result: false

----------
Quick reference: Activity of the listed items.
System: Erythrocyte
Assay Info: Hemolytic activity in human RBC assessed as mean absorbance (reference value: 0.1868 +/- 0.033)
Format: ADME, cell-based
// print number alone

| Compound | Activity |
| --- | --- |
| COc1ccc2c(c1)c(CC(=O)O)c(C)n2C(=O)c1ccc(Cl)cc1 [INDOMETHACIN] | 0.3834 |
| COc1cc(OS(=O)(=O)C(F)(F)F)c2c(c1C(C)=O)OC(C)(C)C=C2 | 0.4852 |
| COc1cc(O)c2c(c1C(C)=O)OC(C)(C)C(OC)C2Cl (centres undefined) | 0.4242 |

Per the record, "COc1cc2c(c(OC)c1C(C)=O)[C@H](O)[C@H](O)C(C)(C)O2" has Activity of 0.3611

----------
Study System: DNA gyrase (Staphylococcus aureus, UniProt P0A0K8+P20831)
Assay Info: Inhibition of Staphylococcus aureus DNA gyrase assessed as reduction in relaxation of pBR322 DNA by […] analysis
pIC50: −log10 of the molar value.
Quick reference: pIC50 of the listed items.

Past entries and their recorded results:
| Compound | Experimental Result |
| --- | --- |
| COc1cc(OC)c2c(c1C(C)=O)OC(C)(C)[C@@H](O)[C@H]2O | 7.62 to 8.73 |
| COc1cc(OC)c2c(c1C(C)=O)OC(C)(C)[C@H](O)[C@@H]2O | 8.00 |
| COc1cc(O)c2c(c1C(C)=O)OC(C)(C)C(OC)C2Cl (centres undefined) | 8.46 |
| COc1cc(OC)c2c(c1C(C)=O)OC(C)(C)C(OC)C2Cl (centres undefined) | 7.62 to 8.73 |
| COc1cc2c(c(OC)c1C(C)=O)[C@H](O)[C@H](O)C(C)(C)O2 | 7.62 to 8.73 |

Per the record, COc1cc(OC)c2c(c1C(C)=O)OC(C)(C)C(O)C2Br (centres undefined) has pIC50 of 7.62 to 8.73

Per the record, "COc1cc2c(c(O)c1C(C)=O)C(=O)CC(C)(C)O2" has pIC50 of 7.62 to 8.73

Per the record, "COc1c(Br)c(OC)c(C(C)=O)c2c1C=CC(C)(C)O2" has pIC50 of 7.62 to 8.73

Per the record, COc1cc(OC)c2c(c1C(C)=O)OC(C)(C)C(OC)C2F (centres undefined) has pIC50 of 8.02
